These measurements were taken from ChEMBL document CHEMBL4811284.

experimental target: Carbonic anhydrase 9 (Homo sapiens)
assay notes: Inhibition of recombinant human CA9 preincubated for 15 mins by measured for 10 to 100 secs by phenol red dye based stopped flow CO2 hydration assay
readout type: Ki (nM)
One number for each entry, in nM.

Look over these answered cases.
Cc1ccc([Te]Cc2ccc(S(N)(=O)=O)cc2)cc1
2.2
Cc1cccc(C)c1[Te]Cc1ccc(S(N)(=O)=O)cc1
2.5
COc1cc([Te]Cc2ccc(S(N)(=O)=O)cc2)cc(OC)c1OC
2.4

# per-item lookup of Ki; items listed below
1. NS(=O)(=O)c1ccc(C[Te]c2ccccc2)cc1
2. Cc1ccccc1[Te]Cc1ccc(S(N)(=O)=O)cc1
3. COc1ccc([Te]Cc2ccc(S(N)(=O)=O)cc2)cc1
4. NS(=O)(=O)c1ccc(C[Te]c2ccc3ccccc3c2)cc1

1: 2.4; 2: 2.6; 3: 2.6; 4: 2.9
